Reported Subject D, Urine Results by item:
test: clinical; settings: human, in vivo, 7 day
The figure you give is taken to be in ng/m; do not add the unit.

Consider the worked cases shown below.
# compound, Subject D, Urine Results, ng/m
data = [
    ("CNC(=C[N+](=O)[O-])NCCSCc1ccc(CN(C)C)o1 [Ranitidine]", 14),
    ("NC(N)=Nc1nc(CSCCC(N)=NS(N)(=O)=O)cs1 [Famotidine]", 37.3),
    ("CN(C)CCOC(c1ccccc1)c1ccccc1 [Diphenhydramine]", 185000),
]

The reported value for O=C1O[C@H]([C@@H](O)CO)C(O)=C1O [Ascorbic Acid] in terms of Subject D, Urine Results is 3908

The reported value for Cc1cc2nc3c(=O)[nH]c(=O)nc-3n(C[C@H](O)[C@H](O)[C@H](O)CO)c2cc1C [Riboflavin] in terms of Subject D, Urine Results is 3200
